METHOD_DESCRIPTION: solvent given as SMILES
EXPERIMENTAL_CONTEXT: in CCO
READOUT: emission maximum
The reply should consist of the numeric value with the unit placed after it.

Some entries whose results are on file:
// returns reported emission maximum for input Cc1ccc(C(=O)OCc2ccc3c4cccc5cccc(c6cccc2c63)c54)cc1
445 nm

Request: CCC1=C(C)C2=C(c3c4ccccc4cc4ccccc34)c3c(C)c(CC)c(C)n3[B-](F)(F)[N+]2=C1C
539 nm

Request: NS(=O)(=O)c1ccc(N2N=C(c3ccc(O)cc3)CC2c2ccc(Cl)cc2)cc1 (stereo unspecified)
427 nm

Request: O=Cc1ccc(-c2ccc(O)c(-c3nc4ccccc4s3)c2)o1
550 nm

Request: CC1=CC2=Nc3nc(C)[n+](C)cc3CN2C=C1
433 nm

---
// returns reported emission maximum for input CN(C)c1ccc2c3c(ccc2c1)C(=O)CCC3
489 nm

Request: CN1/C(=C/C=C(/C=C/c2sc3ccccc3[n+]2C)c2cc(F)cc(F)c2)Sc2ccccc21
670 nm

Request: CCCCCCCCCCCCOc1cc2cc(N(C)C)ccc2cc1C=C(C#N)C#N
610 nm

====

List of emission maximum values.
METHOD_DESCRIPTION: solvent given as SMILES
EXPERIMENTAL_CONTEXT: in CCCCCC
Express your answer in nm, writing the number without its unit.

Some entries whose results are on file:
// returns reported emission maximum for input O=C1c2ccccc2S(=O)(=O)c2ccc(-n3c4ccccc4c4ccccc43)cc21
485

Request: COC(C)CC1=N/C(=C\c2cccc(N(C)C)c2)C(=O)N1C (centres undefined)
495

Request: N#Cc1ccc(-c2ccc(C3=CCC(c4ccccc4)CC3)s2)s1 (centres undefined)
427

Request: N#Cc1ccc(-c2ccc3c(c2)c2cc(-c4ccc(C#N)cc4)ccc2c2c3nc(-c3ccc(N(c4ccccc4)c4ccccc4)cc3)n2-c2ccccc2)cc1
419.62

Request: CCCCCCCCCCCCOc1cc2cc(N(C)C)ccc2cc1C=C(C#N)C#N
653

---
// returns reported emission maximum for input CCN(CC)c1ccc(-n2cccc2)cc1
326

Request: CCN(CC)c1ccc(/C=N/Nc2ccc(C#N)cc2)c(O)c1
403

Request: c1ccc(-n2c(-c3cccc4ccccc34)nc3c4cccc5ccc6cccc(c6c54)c32)cc1
384

Request: CCN(CC)c1ccc(-c2nc3c(c4c2-c2ccccc2CC4)-c2ccccc2CC3)cc1
425

Request: COC1=[N+]2C(=C(c3ccccc3)c3cc(SC#N)c(OC)n3[B-]2(F)F)C=C1SC#N
560

Request: CC(C)[Si](C#Cc1c2nc3ccccc3nc2c(C#C[Si](C(C)C)(C(C)C)C(C)C)c2nc3ccccc3nc12)(C(C)C)C(C)C
694

Request: Oc1ccccc1/C=N/c1ccc(Cn2cncn2)cc1
314

Request: CCCCC1(c2ccccc2)Nc2c(-c3ccc(OC)cc3)ccc(-c3ccc(OC)cc3)c2N=C1c1ccccc1 (centres undefined)
517

Request: N#Cc1nc2c3ccc(-c4ccc(N(c5ccccc5)c5ccccc5)cc4)cc3c3cc(-c4ccc(N(c5ccccc5)c5ccccc5)cc4)ccc3c2nc1C#N
503.54

Request: COc1cccc(OC)c1C1=C2C(C)=CC(C)=[N+]2[B-](F)(F)n2c(C)cc(C)c21
519

Request: CCCCCCCCCCCCCCCCOc1cc(C#Cc2ccc3ccccc3c2)c(OCCCCCCCCCCCCCCCC)cc1C#Cc1ccc(C=C(C#N)C#N)cc1
480

Request: CC(C)(C)c1ccc2c(c1)sc1[n+]2[B-](F)(F)n2c(c3cccc4c(Br)ccc2c43)=C1C#N
558

Request: O=C1Nc2ccccc2/C1=C/C(=O)c1ccc(Cl)cc1
382

Request: Nc1ccc(-c2ccc3c(c2)C(=O)c2ccccc2C3=O)cc1
512

====

METHOD_DESCRIPTION: solvent given as SMILES
EXPERIMENTAL_CONTEXT: in CC#N
READOUT: emission maximum (nm)
Express your answer in nm, writing the number without its unit.

// returns reported emission maximum for input COc1cc(/C=C/c2nc3ccccc3s2)c(OC)cc1/C=C/c1nc(C)nc(C)n1
499

Request: COC(=O)C(NC(=O)OC(C)(C)C)c1ccc2oc(-c3cc(OC)ccc3OC)nc2c1 (centres undefined)
390

---
// returns reported emission maximum for input C[C@]12SC(=O)C=C1c1nc(-c3ccccc3)[nH]c1C1=CC(=O)S[C@@]12C
513

Request: CCCCCC(=O)c1c2c(c(C(=O)CCCCC)c3c1OC1(CCCC1)O3)OC1(CCCC1)O2
561

Request: COc1ccc(-c2cc(-c3ccc(C)cc3)nc3c(C#N)c(N4CCCC4)nc(N)c23)cc1
521

Request: COc1ccc(/C=C/C2=[O+][B-](F)(F)OC(/C=C/c3ccc(OC)c4ccccc34)=C2c2ccccc2)c2ccccc12
649

Request: CCN(CC)c1ccc(-c2nc3c(c4c2-c2ccccc2CC4)-c2ccccc2CC3)cc1
463

Request: Cc1cc2c(ccc3c(C)[n+](C)c(C)cc32)c(C)[n+]1C
424

Request: CCCC(=O)c1c2c(c(C(=O)CCC)c3c1OC(CC(=O)OC)(C(=O)O)O3)OCO2
542

====

METHOD_DESCRIPTION: solvent given as SMILES
EXPERIMENTAL_CONTEXT: in CO
Binary classification by emission maximum, with 500 nm as an inclusive lower bound for 1; all other cases are -1.

# example entries with known answers
Is reported emission maximum greater than or equal to 500 nm here: CCc1c(C)c2n(c1C)[B-](F)(F)[N+]1=C(c3ccc[nH]3)c3ccccc3C1=C2
1

Request: CCC1=C(C)C2=Cc3cc(I)cn3[B-](F)(F)[N+]2=C1C
1

Request: CC1(C)C(/C=C/C2=C(Cl)C(=C/C=C3/N(Cc4ccc([N+](=O)[O-])cc4)c4ccccc4C3(C)C)/CCC2)=[N+](Cc2ccc([N+](=O)[O-])cc2)c2ccccc21
1

Request: Cc1c2oc3c(C)c(N)cc(C(=O)NC4OC(=O)C(C(C)C)N(C)C(=O)CN(C)C(=O)C5CCCN5C(=O)C(C(C)C)NC4=O)c3nc-2c(C(=O)NC2OC(=O)C(C(C)C)N(C)C(=O)CN(C)C(=O)C3CCCN3C(=O)C(C(C)C)NC2=O)c(N)c1=O (configuration not stated)
1

Request: c1ccc(-c2nc3c(ccc4[nH]ccc43)o2)cc1
-1

# evaluate next
Is reported emission maximum greater than or equal to 500 nm here: COc1cccc(OC)c1C1=C2C(C)=CC(C)=[N+]2[B-](F)(F)n2c(C)cc(C)c21
1

====

METHOD_DESCRIPTION: solvent given as SMILES
EXPERIMENTAL_CONTEXT: in ClC(Cl)Cl
READOUT: emission maximum (nm)
Express your answer in nm, writing the number without its unit.

Some entries whose results are on file:
// returns reported emission maximum for input CCCCOc1ccc(-c2cc3c(o2)c(-c2ccc(OCCCC)cc2)c2n3[B-](F)(F)[N+]3=Cc4c(-c5ccc(OCCCC)cc5)c5oc(-c6ccc(OCCCC)cc6)cc5n4[B-](F)(F)[N+]3=C2)cc1
660

Request: F[B-]1(F)OC(c2ccc(N3CCCCC3)cc2)=Cc2cccc[n+]21
499

Request: CCCCCCC(CCCCCC)N1C(=O)c2cccc3c(-c4ccc(OC)c5ccccc45)ccc(c23)C1=O
509.7

Request: CCOC(=O)/C(C)=C/C1=C(c2ccc(C)cc2)C2=Nc3c(-c4ccc(C)cc4)c(Br)c(-c4ccc(C)cc4)n3[B-](F)(F)[N+]2=C1c1ccc(C)cc1
702

---
// returns reported emission maximum for input Cc1cc2c(o1)=CC1=Cc3cc4oc(C)cc4n3[B-](F)(F)[N+]=21
583

Request: COc1ccc2cc(-c3ccc(C(F)(F)F)cc3)oc(=O)c2c1
409

Request: COc1cc2cc(OC)c(C#Cc3ccc([N+](=O)[O-])cc3)cc2cc1C#Cc1ccc([N+](=O)[O-])cc1
577

Request: N#Cc1nc(N(Cc2ccc(Cl)cc2)Cc2ccc(Cl)cc2)c(C#N)nc1N(Cc1ccc(Cl)cc1)Cc1ccc(Cl)cc1
577

Request: N#CC(C#N)=Cc1cn(-c2ccccc2)nc1-c1ccccc1
432

Request: CC[n+]1c(C=C2C(=O)C(C=C3Sc4cc(Cl)ccc4N3C)=C2[O-])[se]c2ccccc21
699

Request: Cc1ccc(C2=C3C=CC4=[N+]3[P-](=O)(=O)n3c2ccc3-c2ccc([nH]2)/C(c2ccc(C)cc2)=c2/cc/c(o2)=C(\c2ccc(C)cc2)c2ccc4[nH]2)cc1
714

Request: CCCCCCOc1ccc(C#Cc2ccc(C#Cc3ccc(OCCCCCC)c(OCCCCCC)c3)c3nsnc23)cc1OCCCCCC
580

====

METHOD_DESCRIPTION: solvent given as SMILES
EXPERIMENTAL_CONTEXT: in Cc1ccccc1
READOUT: emission maximum
The reply should consist of the numeric value with the unit placed after it.

Some entries whose results are on file:
// returns reported emission maximum for input CC(C)c1cc(C(C)C)c(B2c3cc(-n4c5ccccc5c5ccccc54)ccc3N(c3ccccc3)c3ccc(-n4c5ccccc5c5ccccc54)cc32)c(C(C)C)c1
442.52 nm

Request: c1ccc(C2(c3ccccc3)c3ccccc3N(c3ccc(-c4nc([C@]56CC7CC(C[C@@H](C7)C5)C6)nc([C@]56C[C@H]7C[C@@H](C[C@H](C7)C5)C6)n4)cc3)c3ccccc32)cc1
451.05 nm

Request: O=C(/C=C(\O)c1ccc(N2c3ccccc3Oc3ccccc32)cc1)c1ccc(N2c3ccccc3Oc3ccccc32)cc1
594 nm

Request: CC1(C)c2ccccc2N(c2ccc3c(c2)c2ccccc2n2c4ccccc4nc32)c2ccccc21
437 nm

Request: O=S(=O)(c1cccc(-n2c3ccccc3c3ccccc32)c1)c1cccc(-n2c3ccccc3c3ccccc32)c1
405 nm

Request: CCCCCCCCCCCCNc1cccc2[n+]1[B-](F)(F)n1c(c3cccc4cccc1c43)=N2
529 nm

Request: c1cc2cc(c1)c1ccc3ccc4ccc(cc4c3c1)c1ccc3ccc4ccc(cc4c3c1)c1cccc2c1
414 nm

Request: COc1ccc(-c2ccc(-c3ccc(OC)cc3)c3nc(-c4ccccc4)c(-c4ccccc4)nc23)cc1
492 nm

Request: CC(C)(C)c1ccc2c(c1)c1cc(C(C)(C)C)ccc1n2-c1ccc(-n2c3ccc(C(C)(C)C)cc3c3cc(C(C)(C)C)ccc32)c(C(=O)c2ccncc2)c1
508 nm

Request: COc1ccc(/C=C/C=C/C=C/c2ccc([N+](=O)[O-])cc2)cc1
541 nm

---
// returns reported emission maximum for input N#Cc1c(-n2c3ccc(Br)cc3c3cc(Br)ccc32)c(C#N)c(-n2c3ccc(Br)cc3c3cc(Br)ccc32)c(-n2c3ccc(Br)cc3c3cc(Br)ccc32)c1-n1c2ccc(Br)cc2c2cc(Br)ccc21
521 nm

Request: CC(C)(C)c1cc(C(C)(C)C)c(-c2nnc(-c3ccc(-n4c5ccccc5c5ccccc54)cc3)o2)c(C(C)(C)C)c1
376 nm

Request: Cc1cc(-n2c3ccccc3c3cc(C#N)ccc32)ccc1-c1ccc(S(=O)(=O)c2ccccc2)cc1C
352 nm

Request: Cc1cc(C)c(B(c2ccc(N3c4ccccc4Oc4ccccc43)cc2)c2c(C)cc(C)cc2C)c(C)c1
540 nm

Request: Cc1cc(N2c3ccccc3C(C)(C)c3ccccc32)ccc1-c1ncnc(-c2ccc(N3c4ccccc4C(C)(C)c4ccccc43)cc2C)c1C
454 nm
